Would you mind telling me the reported Percent variations of plasma cholesterol with respect to the controls of each entry?
# Tested on: plasma levels of cholesterol
# experiment_notes: Effect of oral administration on plasma levels of cholesterol in the empty rat
# Type: in vivo, rat (COBS CD (SD) BR male)
# condition_context: 100 mg/kg oral referred to nicotinic acid, 16 h, empty rat
Numbers only, in %.

Reference set (3 entries):
>  <molecule>
O=C(N[C@H]1C(OC(=O)c2cccnc2)O[C@H](COC(=O)c2cccnc2)[C@@H](OC(=O)c2cccnc2)[C@@H]1OC(=O)c1cccnc1)c1cccnc1 (stereo partly shown) [GLUN, N-nicotinoyl-glucosamine tetranicotinate]

>  <units_of_measure>
%

>  <reported_measurement>
-53

$$$$
>  <molecule>
O=C(O)c1cccnc1 [NICOTINIC ACID, nicotinic acid]

>  <units_of_measure>
%

>  <reported_measurement>
-14

$$$$
>  <molecule>
O=C(OC[C@H](OC(=O)c1cccnc1)[C@@H](OC(=O)c1cccnc1)[C@H](OC(=O)c1cccnc1)[C@@H](COC(=O)c1cccnc1)OC(=O)c1cccnc1)c1cccnc1 [SORBINICATE, D-glucitol hexanicotinate]

>  <units_of_measure>
%

>  <reported_measurement>
-13

$$$$

Now look at this one.
Exercise: Consider the molecule O=C(OCC(COC(=O)c1cccnc1)(COC(=O)c1cccnc1)COC(=O)c1cccnc1)c1cccnc1 [NICERITROLE, pentaerithritol-tetranicotinate] . State its measured Percent variations of plasma cholesterol with respect to the controls.
Solution: -17

====

# Test system: plasma levels of free glycerol
# experiment_notes: Effect of oral administration on plasma levels of free glycerol in the empty rat
# Assay type: in vivo, rat (COBS CD (SD) BR male)
# condition_context: 100 mg/kg oral referred to nicotinic acid, 6 h, empty rat
Would you mind telling me the reported Percent variations of plasma free glycerol with respect to the controls of each entry?

Each compound below has a recorded value; state its Percent variations of plasma free glycerol with respect to the controls.
1. O=C(N[C@H]1C(OC(=O)c2cccnc2)O[C@H](COC(=O)c2cccnc2)[C@@H](OC(=O)c2cccnc2)[C@@H]1OC(=O)c1cccnc1)c1cccnc1 (stereo partly shown) [GLUN, N-nicotinoyl-glucosamine tetranicotinate]
2. O=C(O)c1cccnc1
3. O=C(OCC(COC(=O)c1cccnc1)(COC(=O)c1cccnc1)COC(=O)c1cccnc1)c1cccnc1 [NICERITROLE, pentaerithritol-tetranicotinate]
4. O=C(OC[C@H](OC(=O)c1cccnc1)[C@@H](OC(=O)c1cccnc1)[C@H](OC(=O)c1cccnc1)[C@@H](COC(=O)c1cccnc1)OC(=O)c1cccnc1)c1cccnc1 [SORBINICATE, D-glucitol hexanicotinate]

Solution:
-24%
+9%
+17%
+3%

====

# experiment_notes: Acute toxicity (LD50) in rats of both sexes, oral and intraperitoneal route
# condition_context: rat, in vivo, ip, LD50, rat, female
measurement_label: LD50 (mg/kg)
Give bare numbers, in mg/kg.

Exercise: Consider the compound O=C(O)c1cccnc1 [NICOTINIC ACID, nicotinic acid] . State its measured LD50.
Solution: 296

====

# Tested on: plasma levels of FFA
# experiment_notes: Effect of oral administration on plasma levels of FFA in the empty rat
# condition_context: 30 mg/kg oral referred to nicotinic acid, 4 h, empty rat
measurement_label: Percent variations of plasma FFA with respect to the controls

Reference set (3 entries):
>  <compound>
O=C(O)c1cccnc1

>  <reported_measurement>
+23%

$$$$
>  <compound>
O=C(OC[C@H](OC(=O)c1cccnc1)[C@@H](OC(=O)c1cccnc1)[C@H](OC(=O)c1cccnc1)[C@@H](COC(=O)c1cccnc1)OC(=O)c1cccnc1)c1cccnc1 [SORBINICATE, D-glucitol hexanicotinate]

>  <reported_measurement>
+13%

$$$$
>  <compound>
O=C(N[C@H]1C(OC(=O)c2cccnc2)O[C@H](COC(=O)c2cccnc2)[C@@H](OC(=O)c2cccnc2)[C@@H]1OC(=O)c1cccnc1)c1cccnc1 (stereo partly shown) [GLUN, N-nicotinoyl-glucosamine tetranicotinate]

>  <reported_measurement>
-3%

$$$$

Now look at this one.
Exercise: Please report Percent variations of plasma FFA with respect to the controls with plasma levels of FFA for item O=C(OCC(COC(=O)c1cccnc1)(COC(=O)c1cccnc1)COC(=O)c1cccnc1)c1cccnc1 [NICERITROLE, pentaerithritol-tetranicotinate] .
Solution: +9%

The measured values listed here are drawn from patent US4358441A.
